# assayed.system: Interleukin-8 (Homo sapiens, UniProt P10145)
# Sequence (P10145 whole entry): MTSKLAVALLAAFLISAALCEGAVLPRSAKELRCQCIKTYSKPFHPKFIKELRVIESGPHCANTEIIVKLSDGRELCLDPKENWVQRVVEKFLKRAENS
# method.description: Inhibition of Interleukin-8 (IL-8)

[
  {
    "substance": "Ac-MWDFDDLNFTGMPPADEDYSP-NH2",
    "units.of.measure": "µM",
    "Ki": 13
  },
  {
    "substance": "Ac-MWDFDDGMPPADEDYSP-NH2",
    "units.of.measure": "µM",
    "Ki": 31
  }
]
